- System: DeltatarO mutant
- Measurement Notes: S. aureus survival, RN4220 and DeltatarO strains – OD600, teichoic acid synthesis inhibitors, primary screen (AID 463173)
- Condition Info: S. aureus RN4220 wild type/DeltatarO growth, OD600, 18 h, screened at 18.75 µg/mL (by protocol)
Screen size: about 52,000 compounds; about 4,300 (8.3%) were called active. Cut-off read from the data, not from the text of the source: active = survival mostly below about 52% (no sharp cut-off); inactive = mostly above about 56%. The full list was thinned out, with actives kept by preference.
Outcome codes: active, inactive

INSERT INTO assay_data (molecule, measured_on, assigned_class) VALUES
  ('CC1Cc2ccccc2N1C(=O)c1cnsn1 (centres undefined)', 'DeltatarO mutant', 'inactive'),
  ('CCc1cccc(C)c1NC(=O)C1CCN(c2nn3c(=O)cc(C)nc3s2)CC1', 'DeltatarO mutant', 'inactive'),
  ('COc1ccc(CCNC(=O)c2cc3sccc3n2Cc2ccc(Cl)cc2)cc1OC', 'DeltatarO mutant', 'inactive'),
  ('COc1ccc(NC(=O)CSc2c3c(nc4ccccc24)CCC3)c(OC)c1', 'DeltatarO mutant', 'inactive'),
  ('CCn1c(C(=O)NCc2ccc(C)cc2)cc2sc(Cl)cc21', 'DeltatarO mutant', 'inactive'),
  ('FC(F)(F)c1ccc2c(c1)ncc1c(-c3ccccc3)nn(-c3ccccc3)c12', 'DeltatarO mutant', 'inactive'),
  ('COc1cc2ncc3c(-c4ccccc4)nn(-c4ccc(C)cc4)c3c2cc1OC', 'DeltatarO mutant', 'active'),
  ('CCc1ccc(-c2nn(-c3ccc(OC)cc3)c3c2cnc2ccc(OC)cc23)cc1', 'DeltatarO mutant', 'active'),
  ('CCOc1ccc(-c2nn(-c3ccc(F)cc3)c3c2cnc2ccc(F)cc23)cc1', 'DeltatarO mutant', 'inactive');
